HPLC elution for assorted molecules
# method: Analytical reversed-phase HPLC elution (hydrophobicity)
# Format: physicochemical
# test-parameters: Table S1; analytical RP-HPLC, SunFire C18, water/ACN + 0.1% TFA, 5 to 100% B linear over 30 min, 1 mL/min, UV 220 nm; approximate comparison of hydrophobicity
Square brackets hold non-standard residues; d marks the D form. Peptide text beside a SMILES is read from it. Gly(N(CH2)2(3-indolyl)) = O=C(O)CNCCc1c[nH]c2ccccc12; Nspe = C[C@H](NCC(=O)O)c1ccccc1; Nlys = NCCCCNCC(=O)O
Provide only the numeric value, understood in % MeCN.

Here are 4 molecules together with their reported answers.
Please report the recorded HPLC elution for C[C@@H](c1ccccc1)N(CC(N)=O)C(=O)CN(C(=O)CN(CCCCN)C(=O)CN(C(=O)CN(C(=O)CN(CCCCN)C(=O)CN(CCc1c[nH]c2ccccc12)C(=O)CN(CCc1c[nH]c2ccccc12)C(=O)CN(CCCCN)C(=O)CN(C(=O)CN(C(=O)CNCCCCN)[C@@H](C)c1ccccc1)[C@@H](C)c1ccccc1)[C@@H](C)c1ccccc1)[C@@H](C)c1ccccc1)[C@@H](C)c1ccccc1 [peptoid 13] .
56.0

Please report the recorded HPLC elution for C[C@@H](c1ccccc1)N(CC(N)=O)C(=O)CN(C(=O)CN(CCCCN)C(=O)CN(C(=O)CN(C(=O)CN(CCCCN)C(=O)CN(C(=O)CN(C(=O)CN(CCCCN)C(=O)CN(C(=O)CN(C(=O)CN(CCCCN)C(=O)CN(CCc1c[nH]c2ccccc12)C(=O)CNCCc1c[nH]c2ccccc12)[C@@H](C)c1ccccc1)[C@@H](C)c1ccccc1)[C@@H](C)c1ccccc1)[C@@H](C)c1ccccc1)[C@@H](C)c1ccccc1)[C@@H](C)c1ccccc1)[C@@H](C)c1ccccc1 [peptoid 6] .
57.2

Please report the recorded HPLC elution for C[C@@H](c1ccccc1)N(CC(=O)N(CCCCN)CC(=O)N(CCCCN)CC(=O)N(CCc1c[nH]c2ccccc12)CC(=O)N(CCc1c[nH]c2ccccc12)CC(N)=O)C(=O)CN(CCCCN)C(=O)CN(C(=O)CN(C(=O)CN(CCCCN)C(=O)CN(C(=O)CN(C(=O)CNCCCCN)[C@@H](C)c1ccccc1)[C@@H](C)c1ccccc1)[C@@H](C)c1ccccc1)[C@@H](C)c1ccccc1 [peptoid 28] (H-[Nlys][Nspe][Nspe][Nlys][Nspe][Nspe][Nlys][Nspe][Nlys][Nlys][Gly(N(CH2)2(3-indolyl))][Gly(N(CH2)2(3-indolyl))]-NH2) .
48.6

Please report the recorded HPLC elution for C[C@@H](c1ccccc1)N(CC(N)=O)C(=O)CN(CCCCN)C(=O)CN(CCCCN)C(=O)CN(C(=O)CN(C(=O)CN(CCCCN)C(=O)CN(C(=O)CN(C(=O)CN(CCCCN)C(=O)CN(Cc1ccccc1)C(=O)CN(Cc1ccccc1)C(=O)CNCCCCN)[C@@H](C)c1ccccc1)[C@@H](C)c1ccccc1)[C@@H](C)c1ccccc1)[C@@H](C)c1ccccc1 [peptoid 47] .
47.8

Next molecule, HPLC elution to be filled in.
Please report the recorded HPLC elution for C[C@@H](c1ccccc1)N(CC(N)=O)C(=O)CN(CCCCN)C(=O)CN(C(=O)CN(C(=O)CN(CCCCN)C(=O)CN(C(=O)CN(C(=O)CN(CCCCN)C(=O)CN(C(=O)CN(CCCCN)C(=O)CNCCCCN)[C@@H](C)c1ccccc1)[C@@H](C)c1ccccc1)[C@@H](C)c1ccccc1)[C@@H](C)c1ccccc1)[C@@H](C)c1ccccc1 [peptoid 52] .
46.9

###

HC50 for assorted compounds
# Tested on: rat erythrocytes
# method: Hemolysis assay
# Type: cell-based
# test-parameters: pH 7.4
Square brackets hold non-standard residues; d marks the D form. Peptide text beside a SMILES is read from it. Gly(N(CH2)2(3-indolyl)) = O=C(O)CNCCc1c[nH]c2ccccc12; Nspe = C[C@H](NCC(=O)O)c1ccccc1; Nphe = O=C(O)CNCc1ccccc1; Nlys = NCCCCNCC(=O)O

Here are 2 compounds together with their reported answers.
Please report the recorded HC50 for C[C@@H](c1ccccc1)N(CC(=O)N(CCCCN)CC(=O)N(CC(=O)N(CC(=O)N(CCCCN)CC(=O)N(CCCCN)CC(=O)N(CC(=O)N(CCCCN)CC(=O)N(CCc1c[nH]c2ccccc12)CC(=O)N(CCc1c[nH]c2ccccc12)CC(N)=O)Cc1ccccc1)[C@@H](C)c1ccccc1)[C@@H](C)c1ccccc1)C(=O)CN(C(=O)CNCCCCN)[C@@H](C)c1ccccc1 [peptoid 39] (H-[Nlys][Nspe][Nspe][Nlys][Nspe][Nspe][Nlys][Nlys][Nphe][Nlys][Gly(N(CH2)2(3-indolyl))][Gly(N(CH2)2(3-indolyl))]-NH2) .
> 100 µM

Please report the recorded HC50 for C[C@@H](c1ccccc1)N(CC(N)=O)C(=O)CN(C(=O)CN(CCCCN)C(=O)CN(C(=O)CN(CCCCN)C(=O)CN(CCCCN)C(=O)CN(CCc1c[nH]c2ccccc12)C(=O)CN(C(=O)CN(CCCCN)C(=O)CN(C(=O)CN(C(=O)CNCCCCN)[C@@H](C)c1ccccc1)[C@@H](C)c1ccccc1)[C@@H](C)c1ccccc1)[C@@H](C)c1ccccc1)[C@@H](C)c1ccccc1 .
> 100 µM

Next compound, HC50 to be filled in.
Please report the recorded HC50 for C[C@@H](c1ccccc1)N(CC(=O)N(CCCCN)CC(=O)N(CCCCN)CC(=O)N(CC(=O)N(CC(=O)N(CCCCN)CC(=O)N(CC(=O)N(CC(=O)N(CCCCN)CC(N)=O)[C@@H](C)c1ccccc1)[C@@H](C)c1ccccc1)[C@@H](C)c1ccccc1)[C@@H](C)c1ccccc1)C(=O)CN(CCCCN)C(=O)CN(CCc1c[nH]c2ccccc12)C(=O)CNCCc1c[nH]c2ccccc12 [peptoid 38] (H-[Gly(N(CH2)2(3-indolyl))][Gly(N(CH2)2(3-indolyl))][Nlys][Nspe][Nlys][Nlys][Nspe][Nspe][Nlys][Nspe][Nspe][Nlys]-NH2) .
> 100 µM

###

# method: Analytical reversed-phase HPLC elution (hydrophobicity)
# Format: physicochemical
# test-parameters: Table S1; analytical RP-HPLC, SunFire C18, water/ACN + 0.1% TFA, 5 to 100% B linear over 30 min, 1 mL/min, UV 220 nm; approximate comparison of hydrophobicity
HPLC elution for assorted compounds
Provide only the numeric value, understood in % MeCN.

Please report the recorded HPLC elution for C[C@@H](c1ccccc1)N(CC(N)=O)C(=O)CN(C(=O)CN(CCCCN)C(=O)CN(C(=O)CN(C(=O)CN(CCCCN)C(=O)CN(CCc1c[nH]c2ccccc12)C(=O)CN(CCc1c[nH]c2ccccc12)C(=O)CN(CCCCN)C(=O)CN(CCc1c[nH]c2ccccc12)C(=O)CN(CCc1c[nH]c2ccccc12)C(=O)CNCCCCN)[C@@H](C)c1ccccc1)[C@@H](C)c1ccccc1)[C@@H](C)c1ccccc1 .
53.2

Please report the recorded HPLC elution for C[C@@H](c1ccccc1)N(CC(N)=O)C(=O)CN(C(=O)CN(CCCCN)C(=O)CN(C(=O)CN(C(=O)CN(CCCCN)C(=O)CN(C(=O)CN(C(=O)CN(CCCCN)C(=O)CN(C(=O)CN(C(=O)CN(CCCCN)C(=O)CN(Cc1ccccc1)C(=O)CNCc1ccccc1)[C@@H](C)c1ccccc1)[C@@H](C)c1ccccc1)[C@@H](C)c1ccccc1)[C@@H](C)c1ccccc1)[C@@H](C)c1ccccc1)[C@@H](C)c1ccccc1)[C@@H](C)c1ccccc1 .
56.8

Please report the recorded HPLC elution for C[C@@H](c1ccccc1)N(CC(N)=O)C(=O)CN(C(=O)CN(CCCCN)C(=O)CN(C(=O)CN(CCCCN)C(=O)CN(CCCCN)C(=O)CN(C(=O)CN(C(=O)CN(CCCCN)C(=O)CN(CCc1c[nH]c2ccccc12)C(=O)CN(CCc1c[nH]c2ccccc12)C(=O)CNCCCCN)[C@@H](C)c1ccccc1)[C@@H](C)c1ccccc1)[C@@H](C)c1ccccc1)[C@@H](C)c1ccccc1 .
47.9

Please report the recorded HPLC elution for C[C@@H](c1ccccc1)N(CC(N)=O)C(=O)CN(C(=O)CN(CCCCN)C(=O)CN(C(=O)CN(C(=O)CN(CCCCN)C(=O)CN(CCc1c[nH]c2ccccc12)C(=O)CN(C(=O)CN(CCCCN)C(=O)CN(C(=O)CN(CCCCN)C(=O)CNCCCCN)[C@@H](C)c1ccccc1)[C@@H](C)c1ccccc1)[C@@H](C)c1ccccc1)[C@@H](C)c1ccccc1)[C@@H](C)c1ccccc1 .
50.7

Next compound, HPLC elution to be filled in.
Please report the recorded HPLC elution for C[C@@H](c1ccccc1)N(CC(N)=O)C(=O)CN(CCCCN)C(=O)CN(C(=O)CN(C(=O)CN(CCCCN)C(=O)CN(C(=O)CN(C(=O)CN(CCCCN)C(=O)CN(C(=O)CN(CCCCN)C(=O)CN(CCCCN)C(=O)CNCCc1c[nH]c2ccccc12)[C@@H](C)c1ccccc1)[C@@H](C)c1ccccc1)[C@@H](C)c1ccccc1)[C@@H](C)c1ccccc1)[C@@H](C)c1ccccc1 .
48.6

Every entry's value here was drawn from paper PMC10460844.
